Sourced from patent US20090247533A1

- Tested on: protein synthesis
- methodNotes: Antimetabolism: protein synthesis inhibition
- Type: cell-based
# Prot. (protein synthesis inhibition) IC50 values compiled below
endpointLabel: Prot. (protein synthesis inhibition) IC50

INSERT INTO assay_data (molecule, measuredtarget, result) VALUES
  ('COc1c(C)cc2c(c1O)[C@@H]1[C@@H]3[C@@H]4SC[C@H](N)C(=O)OC[C@@H](c5c(O)c(OC)c(C)c(OC(C)=O)c54)N3[C@@H](O)[C@@H](C2)N1C [Et 597, Ecteinascidin 597]', 'protein synthesis', '0.7 µg/mL'),
  ('COc1c(C)cc2c(c1O)[C@@H]1[C@@H]3[C@@H]4SC[C@]5(NCCc6c5[nH]c5ccccc65)C(=O)OC[C@@H](c5c6c(c(C)c(OC(C)=O)c54)OCO6)N3[C@@H](O)[C@H](C2)N1C [Et 736]', 'protein synthesis', '0.5 µg/mL'),
  ('COc1cc2c(cc1O)CCN[C@]21C[S+]([O-])[C@@H]2c3c(OC(C)=O)c(C)c4c(c3[C@H](COC1=O)N1[C@H]2[C@H]2c3c(cc(C)c(OC)c3O)C[C@@H]([C@H]1O)N2C)OCO4 (stereo partly drawn) [Et 759B]', 'protein synthesis', '>1 µg/mL');

====

- measuredTarget: RNA polymerase
- methodNotes: Enzyme inhibition: RNA polymerase inhibition
- Format: biochemical
Binary call on RNAp (RNA polymerase inhibition) IC50: True from 0.5 µg/mL upward, False beneath that.

INSERT INTO assay_data (compound, answerlabel) VALUES
  ('COc1cc2c(cc1O)CCNC21C[S+]([O-])C2c3c(OC(C)=O)c(C)c4c(c3C(COC1=O)N1C(O)C3Cc5cc(C)c(OC)c(O)c5C(N3)C21)OCO4 (centres unmarked) [Et 745B, Ecteinascidin 745B]', 'True'),
  ('COc1cc2c(cc1O)CCN[C@]21CS[C@@H]2c3c(OC(C)=O)c(C)c4c(c3[C@H](COC1=O)N1[C@@H]2[C@H]2c3c(cc(C)c(OC)c3O)C[C@@H]([C@@H]1O)N2C)OCO4', 'False'),
  ('COc1cc2c(cc1O)CCNC21CSC2c3c(OC(C)=O)c(C)c4c(c3C(COC1=O)N1C(O)C3Cc5cc(C)c(OC)c(O)c5C(C21)N3C=O)OCO4 (centres unmarked)', 'True'),
  ('COc1c(C)cc2c(c1O)[C@@H]1[C@@H]3[C@@H]4SC[C@H](N)C(=O)OC[C@@H](c5c(O)c(OC)c(C)c(OC(C)=O)c54)N3[C@@H](O)[C@@H](C2)N1C', 'False');

====

- System: L1210 = murine lymphoma cells
- methodNotes: Cytotoxicity against L1210 cells
- Format: cell-based
endpointLabel: L1210 IC50 (µg/mL)

INSERT INTO assay_data (compound, comparisonsign, quantitativeresult) VALUES
  ('COc1cc2c(cc1O)CCNC21C[S+]([O-])C2c3c(OC(C)=O)c(C)c4c(c3C(COC1=O)N1C(O)C3Cc5cc(C)c(OC)c(O)c5C(N3)C21)OCO4 (stereo not shown) [Et 745B, Ecteinascidin 745B]', '=', 0.025),
  ('COc1cc2c(cc1O)CCNC21CSC2c3c(OC(C)=O)c(C)c4c(c3C(COC1=O)N1C(C(C=O)C=O)C3Cc5cc(C)c(OC)c(O)c5C(C21)N3C)OCO4 (stereo not shown) [Et 815, Ecteinascidin 815]', '=', 0.025),
  ('COc1cc2c(cc1O)CCN[C@]21CS[C@@H]2c3c(OC(C)=O)c(C)c4c(c3[C@H](COC1=O)N1[C@@H]2[C@H]2c3c(cc(C)c(OC)c3O)C[C@@H]([C@@H]1O)N2C)OCO4 [Et 743]', '=', 0.005),
  ('COc1cc2c(cc1O)CCN[C@]21CS[C@@H]2c3c(OC(C)=O)c(C)c4c(c3[C@H](COC1=O)N1[C@@H]2[C@@H]2N[C@@H](Cc3cc(C)c(OC)c(O)c32)[C@@H]1O)OCO4 [Et 729]', '<', 0.001);
